The measurements presented in this section are drawn from paper PMC9276671.

Test: Plasma pharmacokinetics of ALM201 in Phase I patients (validated LC-MS/MS, Phoenix WinNonlin)
Details: human, plasma, sc, 200 mg, Tmax, median, 200 mg SC, day 1 cycle 1, n = 4; plasma LC-MS/MS
No end group written: not given here.
reported metric: Tmax (h)
Write the answer as a number in h, unit excluded.

Request: Give Tmax for the following sequence: IRQQPRDPPTETLELEVSPDPAS [ALM201]
Response: 2.5

----------
Experiment: Plasma pharmacokinetics of ALM201 in Phase I patients (validated LC-MS/MS, Phoenix WinNonlin)
Settings: human, plasma, sc, 200 mg, Tmax, median, 200 mg SC, day 18 cycle 4, n = 2; plasma LC-MS/MS
No end group written: not given here.
reported metric: Tmax (h)
Report only the number, with the unit h understood.

Request: Identify the reported Tmax for the following entry. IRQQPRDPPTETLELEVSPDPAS [ALM201]
Response: 1.57
